The following molecules are listed with their measured MIC values.
Test system: E. coli (wild-type) BW25113

>  <MOLECULE>
CNC(CC(C)C)C(=O)NC1C(=O)NC(CC(N)=O)C(=O)NC2C(=O)NC3C(=O)NC(C(=O)N[C@H](C(=O)O)c4cc(O)cc(O)c4-c4cc3ccc4O)C(O)c3ccc(c(Cl)c3)Oc3cc2cc(c3OC2OC(CO)C(O)C(O)C2OC2CC(C)(NCCCc3cn(CCCNC(=O)c4ccc(O)c(O)c4Cl)nn3)C(O)C(C)O2)Oc2ccc(cc2Cl)C1O (stereo partly drawn)

>  <MEASURED_ON>
E. coli (wild-type) BW25113

>  <COMPARISON_SIGN>
>

>  <MIC, µg/mL>
64

$$$$
>  <MOLECULE>
CN[C@H](CC(C)C)C(=O)N[C@H]1C(=O)N[C@@H](CC(N)=O)C(=O)N[C@H]2C(=O)N[C@H]3C(=O)N[C@H](C(=O)N[C@H](C(=O)NCCCCNC(=O)c4cccc(O)c4O)c4cc(O)cc(O)c4-c4cc3ccc4O)[C@H](O)c3ccc(c(Cl)c3)Oc3cc2cc(c3O[C@@H]2O[C@H](CO)C(O)C(O)[C@H]2O[C@H]2CC(C)(N)[C@H](O)[C@H](C)O2)Oc2ccc(cc2Cl)[C@H]1O (stereo partly drawn)

>  <MEASURED_ON>
E. coli (wild-type) BW25113

>  <COMPARISON_SIGN>
=

>  <MIC, µg/mL>
64

$$$$
>  <MOLECULE>
CNC(CC(C)C)C(=O)NC1C(=O)NC(CC(N)=O)C(=O)NC2C(=O)NC3C(=O)NC(C(=O)N[C@H](C(=O)O)c4cc(O)c(CNCCCNC(=O)c5ccc(O)c(O)c5Cl)c(O)c4-c4cc3ccc4O)C(O)c3ccc(c(Cl)c3)Oc3cc2cc(c3OC2OC(CO)C(O)C(O)C2OC2CC(C)(N)C(O)C(C)O2)Oc2ccc(cc2Cl)C1O (stereo partly drawn)

>  <MEASURED_ON>
E. coli (wild-type) BW25113

>  <COMPARISON_SIGN>
=

>  <MIC, µg/mL>
16

$$$$
>  <MOLECULE>
CNC(CC(C)C)C(=O)NC1C(=O)NC(CC(N)=O)C(=O)NC2C(=O)NC3C(=O)NC(C(=O)N[C@H](C(=O)O)c4cc(O)c(CNCc5cn(CCCNC(=O)c6ccc(O)c(O)c6Cl)nn5)c(O)c4-c4cc3ccc4O)C(O)c3ccc(c(Cl)c3)Oc3cc2cc(c3OC2OC(CO)C(O)C(O)C2OC2CC(C)(N)C(O)C(C)O2)Oc2ccc(cc2Cl)C1O (stereo partly drawn)

>  <MEASURED_ON>
E. coli (wild-type) BW25113

>  <COMPARISON_SIGN>
=

>  <MIC, µg/mL>
16

$$$$
>  <MOLECULE>
CNC(CC(C)C)C(=O)NC1C(=O)NC(CC(N)=O)C(=O)NC2C(=O)NC3C(=O)NC(C(=O)N[C@H](C(=O)O)c4cc(O)c(CNCCCCNC(=O)c5ccc(O)c(O)c5Cl)c(O)c4-c4cc3ccc4O)C(O)c3ccc(c(Cl)c3)Oc3cc2cc(c3OC2OC(CO)C(O)C(O)C2OC2CC(C)(N)C(O)C(C)O2)Oc2ccc(cc2Cl)C1O (stereo partly drawn)

>  <MEASURED_ON>
E. coli (wild-type) BW25113

>  <COMPARISON_SIGN>
=

>  <MIC, µg/mL>
64

$$$$
>  <MOLECULE>
CN[C@H](CC(C)C)C(=O)N[C@H]1C(=O)N[C@@H](CC(N)=O)C(=O)N[C@H]2C(=O)N[C@H]3C(=O)N[C@H](C(=O)N[C@H](C(=O)NCCCNS(=O)(=O)c4ccc(O)c(O)c4)c4cc(O)cc(O)c4-c4cc3ccc4O)[C@H](O)c3ccc(c(Cl)c3)Oc3cc2cc(c3O[C@@H]2O[C@H](CO)C(O)C(O)[C@H]2O[C@H]2CC(C)(N)[C@H](O)[C@H](C)O2)Oc2ccc(cc2Cl)[C@H]1O (stereo partly drawn)

>  <MEASURED_ON>
E. coli (wild-type) BW25113

>  <COMPARISON_SIGN>
=

>  <MIC, µg/mL>
32

$$$$

====

A. baumannii JMI #1186154: recorded MIC for assorted molecules

>  <MOLECULE>
CNC(CC(C)C)C(=O)NC1C(=O)NC(CC(N)=O)C(=O)NC2C(=O)NC3C(=O)NC(C(=O)N[C@H](C(=O)NCCCCNC(=O)c4cc(=O)c(O)c[nH]4)c4cc(O)cc(O)c4-c4cc3ccc4O)C(O)c3ccc(c(Cl)c3)Oc3cc2cc(c3OC2OC(CO)C(O)C(O)C2OC2CC(C)(N)C(O)C(C)O2)Oc2ccc(cc2Cl)C1O (stereo in doubt)

>  <MIC>
32 µg/mL

$$$$
>  <MOLECULE>
CNC(CC(C)C)C(=O)N[C@H]1C(=O)N[C@@H](CC(N)=O)C(=O)N[C@H]2C(=O)N[C@H]3C(=O)N[C@H](C(=O)N[C@@H](C(=O)NCc4cn(CCNC(=O)c5cccc(O)c5O)nn4)c4cc(O)cc(O)c4-c4cc3ccc4O)[C@H](O)c3ccc(c(Cl)c3)Oc3cc2cc(c3OC2O[C@H](CO)C(O)C(O)[C@H]2O[C@H]2CC(C)(N)[C@H](O)C(C)O2)Oc2ccc(cc2Cl)[C@H]1O (stereo in doubt)

>  <MIC>
16 µg/mL

$$$$
>  <MOLECULE>
CNC(CC(C)C)C(=O)NC1C(=O)NC(CC(N)=O)C(=O)NC2C(=O)NC3C(=O)NC(C(=O)N[C@H](C(=O)O)c4cc(O)cc(O)c4-c4cc3ccc4O)C(O)c3ccc(c(Cl)c3)Oc3cc2cc(c3OC2OC(CO)C(O)C(O)C2OC2CC(C)(NCCCc3cn(CCCNC(=O)c4ccc(O)c(O)c4Cl)nn3)C(O)C(C)O2)Oc2ccc(cc2Cl)C1O (stereo partly drawn)

>  <MIC>
64 µg/mL

$$$$
>  <MOLECULE>
CNC(CC(C)C)C(=O)NC1C(=O)NC(CC(N)=O)C(=O)NC2C(=O)NC3C(=O)NC(C(=O)N[C@H](C(=O)NCCc4cn(CCNC(=O)c5cccc(O)c5O)nn4)c4cc(O)cc(O)c4-c4cc3ccc4O)C(O)c3ccc(c(Cl)c3)Oc3cc2cc(c3OC2OC(CO)C(O)C(O)C2OC2CC(C)(N)C(O)C(C)O2)Oc2ccc(cc2Cl)C1O (stereo partly drawn)

>  <MIC>
16 µg/mL

$$$$
>  <MOLECULE>
CN[C@H](CC(C)C)C(=O)N[C@H]1C(=O)N[C@@H](CC(N)=O)C(=O)N[C@H]2C(=O)N[C@H]3C(=O)N[C@H](C(=O)N[C@H](C(=O)NCCCCCCCCNC(=O)c4ccc(O)c(O)c4Cl)c4cc(O)cc(O)c4-c4cc3ccc4O)[C@H](O)c3ccc(c(Cl)c3)Oc3cc2cc(c3O[C@@H]2O[C@H](CO)C(O)C(O)[C@H]2O[C@H]2CC(C)(N)[C@H](O)[C@H](C)O2)Oc2ccc(cc2Cl)[C@H]1O (stereo partly drawn)

>  <MIC>
8 µg/mL

$$$$
>  <MOLECULE>
CN[C@H](CC(C)C)C(=O)N[C@H]1C(=O)N[C@@H](CC(N)=O)C(=O)N[C@H]2C(=O)N[C@H]3C(=O)N[C@H](C(=O)N[C@H](C(=O)NCCOCCOCCNC(=O)c4ccc(O)c(O)c4Cl)c4cc(O)cc(O)c4-c4cc3ccc4O)[C@H](O)c3ccc(c(Cl)c3)Oc3cc2cc(c3O[C@@H]2O[C@H](CO)C(O)C(O)[C@H]2O[C@H]2CC(C)(N)[C@H](O)[C@H](C)O2)Oc2ccc(cc2Cl)[C@H]1O (stereo in doubt)

>  <MIC>
1 µg/mL

$$$$

====

System: E. coli (wild-type) BW25113
MEASUREMENT_NAME: MIC (µg/mL)

>  <COMPOUND>
CNC(CC(C)C)C(=O)NC1C(=O)NC(CC(N)=O)C(=O)NC2C(=O)NC3C(=O)NC(C(=O)N[C@H](C(=O)O)c4cc(O)cc(O)c4-c4cc3ccc4O)C(O)c3ccc(c(Cl)c3)Oc3cc2cc(c3OC2OC(CO)C(O)C(O)C2OC2CC(C)(NCCNC(=O)c3ccc(O)c(O)c3Cl)C(O)C(C)O2)Oc2ccc(cc2Cl)C1O (stereo partly drawn)

>  <UNIT_OF_MEASUREMENT>
µg/mL

>  <COMPARISON_SIGN>
>

>  <READING>
64

$$$$
>  <COMPOUND>
CC(C)C[C@H](C(=O)N[C@H]1C(=O)N[C@@H](CC(N)=O)C(=O)N[C@H]2C(=O)N[C@H]3C(=O)N[C@H](C(=O)N[C@H](C(=O)O)c4cc(O)cc(O)c4-c4cc3ccc4O)[C@H](O)c3ccc(c(Cl)c3)Oc3cc2cc(c3O[C@@H]2O[C@H](CO)C(O)C(O)[C@H]2O[C@H]2CC(C)(N)[C@H](O)[C@H](C)O2)Oc2ccc(cc2Cl)[C@H]1O)N(C)CCNC(=O)c1ccc(O)c(O)c1Cl (stereo partly drawn)

>  <UNIT_OF_MEASUREMENT>
µg/mL

>  <COMPARISON_SIGN>
=

>  <READING>
64

$$$$
>  <COMPOUND>
CNC(CC(C)C)C(=O)NC1C(=O)NC(CC(N)=O)C(=O)NC2C(=O)NC3C(=O)NC(C(=O)N[C@H](C(=O)NCCCCNC(=O)c4cc(=O)c(O)c[nH]4)c4cc(O)cc(O)c4-c4cc3ccc4O)C(O)c3ccc(c(Cl)c3)Oc3cc2cc(c3OC2OC(CO)C(O)C(O)C2OC2CC(C)(N)C(O)C(C)O2)Oc2ccc(cc2Cl)C1O (stereo in doubt)

>  <UNIT_OF_MEASUREMENT>
µg/mL

>  <COMPARISON_SIGN>
=

>  <READING>
32

$$$$
